Tested on: Escherichia coli TOP10
Assay: shrunken log2 fold change of peptide-encoding DNA abundance (4.5 h post-induction vs induction); higher = less antimicrobial activity (less host growth inhibition)
Details: time post-induction: 4.5 h; library: site-saturation at positions 5, 18, 19, 20
Measurement label: shrunken log2 fold change

RRIRCRPPRLPRPRPRPVISPRP	-0.154

[ask] For "RRIRFRPPRLPRPRPRPYMLPRP" , what is its reported shrunken log2 fold change?
[reply] -0.61

[ask] # query: shrunken log2 fold change of entry "RRIRSRPPRLPRPRPRPDANPRP"
[reply] 0.183

[ask] Requested read-out: shrunken log2 fold change. Entry: "RRIRHRPPRLPRPRPRPLKNPRP"
[reply] -0.273

[ask] Could you share which shrunken log2 fold change value was measured for "RRIRPRPPRLPRPRPRPWKFPRP" ?
[reply] -0.0127

[ask] Look at this sequence and give its reported shrunken log2 fold change. "RRIRIRPPRLPRPRPRPPFYPRP"
[reply] -0.438

====

Test system: Escherichia coli TOP10
Test: shrunken log2 fold change of peptide-encoding DNA abundance (4.5 h post-induction vs induction); higher = less antimicrobial activity (less host growth inhibition)
Settings: time post-induction: 4.5 h; library: site-saturation at positions 5, 18, 19, 20
Measurement label: shrunken log2 fold change
Please reply with the value in numeric form only.

Example entries and their recorded answers appear below.
RRIRSRPPRLPRPRPRPVAYPRP	-0.0936
RRIRERPPRLPRPRPRPREDPRP	-0.0632
RRIRHRPPRLPRPRPRPGHFPRP	0.0387
RRIRARPPRLPRPRPRPVFQPRP	0.000109
RRIRIRPPRLPRPRPRPEKFPRP	-0.247

[ask] Could you share what shrunken log2 fold change was measured for "RRIRERPPRLPRPRPRPAYMPRP" , tested on Escherichia coli TOP10?
[reply] -0.505

[ask] Could you share what shrunken log2 fold change was measured for "RRIRMRPPRLPRPRPRPVPEPRP" , tested on Escherichia coli TOP10?
[reply] 1.21

[ask] Report shrunken log2 fold change for "RRIRGRPPRLPRPRPRPWPEPRP" tested on Escherichia coli TOP10.
[reply] 0.29

[ask] Tell me reported shrunken log2 fold change for "RRIRRRPPRLPRPRPRPPHQPRP" , tested with Escherichia coli TOP10.
[reply] 1.32

[ask] Recorded shrunken log2 fold change for "RRIRLRPPRLPRPRPRPPRMPRP" with Escherichia coli TOP10, please?
[reply] 0.232

[ask] Query shrunken log2 fold change on Escherichia coli TOP10 for "RRIRCRPPRLPRPRPRPNEAPRP"
[reply] 0.00978

====

System: Escherichia coli TOP10
Assay: shrunken log2 fold change of peptide-encoding DNA abundance (4.5 h post-induction vs induction); higher = less antimicrobial activity (less host growth inhibition)
Conditions: time post-induction: 4.5 h; library: site-saturation at positions 5, 18, 19, 20
shrunken log2 fold change reference

Here's what some known entries look like.
RRIRNRPPRLPRPRPRPANMPRP	-0.205
RRIRIRPPRLPRPRPRPMMRPRP	0.116
RRIRQRPPRLPRPRPRPGMFPRP	0.00926

[ask] Please give the measured shrunken log2 fold change for this sequence: "RRIRIRPPRLPRPRPRPGYCPRP"
[reply] -0.371

[ask] Look up shrunken log2 fold change: "RRIRNRPPRLPRPRPRPLNQPRP"
[reply] -0.225

[ask] Bench note: what shrunken log2 fold change did "RRIRCRPPRLPRPRPRPNRWPRP" show?
[reply] 0.0409

[ask] Recorded shrunken log2 fold change for "RRIRVRPPRLPRPRPRPNMHPRP" , please?
[reply] -0.332

[ask] Requested read-out: shrunken log2 fold change. Entry: "RRIRIRPPRLPRPRPRPYHVPRP"
[reply] -0.186

[ask] shrunken log2 fold change for "RRIRKRPPRLPRPRPRPVANPRP" ?
[reply] 0.0525

[ask] Could you share which shrunken log2 fold change value was measured for "RRIRLRPPRLPRPRPRPKIEPRP" ?
[reply] 0.0278

[ask] Reported shrunken log2 fold change, sequence "RRIRWRPPRLPRPRPRPLYNPRP" : ____
[reply] -0.78

[ask] // query shrunken log2 fold change value for entry "RRIRLRPPRLPRPRPRPVIMPRP"
[reply] -0.0794

[ask] Which shrunken log2 fold change value is on record for "RRIRSRPPRLPRPRPRPYMFPRP" ?
[reply] -0.648

====

Tested on: Escherichia coli TOP10
Assay: shrunken log2 fold change of peptide-encoding DNA abundance (4.5 h post-induction vs induction); higher = less antimicrobial activity (less host growth inhibition)
Details: time post-induction: 4.5 h; library: site-saturation at positions 5, 18, 19, 20
Measurement label: shrunken log2 fold change
The response must contain the number and no unit.

RRIRFRPPRLPRPRPRPAFLPRP	-0.17

[ask] Value lookup for shrunken log2 fold change; key = "RRIRTRPPRLPRPRPRPRINPRP"
[reply] -0.506

[ask] Which shrunken log2 fold change is reported for this sequence? "RRIRPRPPRLPRPRPRPAHKPRP"
[reply] -0.46

[ask] # input sequence: "RRIRFRPPRLPRPRPRPTMDPRP" ; wanted: its shrunken log2 fold change
[reply] -0.246

[ask] Quick check: shrunken log2 fold change of "RRIRNRPPRLPRPRPRPRWWPRP" ?
[reply] 0.159

====

shrunken log2 fold change by entry:
System: Escherichia coli TOP10
Assay: shrunken log2 fold change of peptide-encoding DNA abundance (4.5 h post-induction vs induction); higher = less antimicrobial activity (less host growth inhibition)
Settings: time post-induction: 4.5 h; library: site-saturation at positions 5, 18, 19, 20

Below: 3 sequences and their reported shrunken log2 fold change.
RRIRPRPPRLPRPRPRPEGPPRP	-0.147
RRIRWRPPRLPRPRPRPVVFPRP	0.0685
RRIRERPPRLPRPRPRPYTDPRP	-0.956

[ask] Fill in the recorded shrunken log2 fold change for this sequence, with Escherichia coli TOP10 as test system: "RRIRQRPPRLPRPRPRPEMHPRP"
[reply] 0.393

[ask] // lookup shrunken log2 fold change | system=Escherichia coli TOP10 | key= "RRIRERPPRLPRPRPRPTRAPRP"
[reply] 0.571

[ask] What reported shrunken log2 fold change corresponds to "RRIRHRPPRLPRPRPRPHLMPRP" on Escherichia coli TOP10?
[reply] -0.177

[ask] Item: "RRIRERPPRLPRPRPRPGYRPRP" Test system: Escherichia coli TOP10 Read-out: shrunken log2 fold change Value: ?
[reply] -0.408

[ask] Test system Escherichia coli TOP10; read-out shrunken log2 fold change; what value for "RRIRHRPPRLPRPRPRPHQMPRP" ?
[reply] -0.0152

[ask] For Escherichia coli TOP10, provide shrunken log2 fold change of "RRIRERPPRLPRPRPRPPGRPRP" please.
[reply] 0.146

[ask] I'm curious: which shrunken log2 fold change was measured for "RRIRDRPPRLPRPRPRPVTKPRP" tested on Escherichia coli TOP10?
[reply] -0.173

[ask] What is its shrunken log2 fold change for Escherichia coli TOP10? Entry: "RRIRWRPPRLPRPRPRPLGCPRP"
[reply] 0.438

[ask] Param readout= shrunken log2 fold change; system= Escherichia coli TOP10; entry= "RRIRSRPPRLPRPRPRPYHHPRP" ; returns value.
[reply] -0.511

[ask] Reported shrunken log2 fold change for Escherichia coli TOP10, given "RRIRIRPPRLPRPRPRPCHNPRP" ?
[reply] -0.293

[ask] What measured shrunken log2 fold change is associated with "RRIRQRPPRLPRPRPRPNPLPRP" on Escherichia coli TOP10?
[reply] -0.0379

[ask] GET /values?readout=shrunken log2 fold change&system=Escherichia coli TOP10&item= "RRIRQRPPRLPRPRPRPNNGPRP"
[reply] -0.361

[ask] Give the reported shrunken log2 fold change for "RRIRERPPRLPRPRPRPDVCPRP" (system: Escherichia coli TOP10).
[reply] -0.239

====

Test system: Escherichia coli TOP10;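 note: peptides expressed intracellularly from a pBAD plasmid library in pooled LB shake-flask culture, induced with 0.3% L-arabinose, DNA abundance read by NGS, three biological replicates, DESeq2 with apeglm shrinkage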
Test: shrunken log2 fold change of peptide-encoding DNA abundance (4.5 h post-induction vs induction); higher = less antimicrobial activity (less host growth inhibition)
Settings: time post-induction: 4.5 h; library: site-saturation at positions 5, 18, 19, 20
Measurement label: shrunken log2 fold change
I'd appreciate a reply containing only the number, no unit.

These recorded examples may help you get a feel for the data.
RRIRIRPPRLPRPRPRPYWFPRP	-0.112
RRIRFRPPRLPRPRPRPECTPRP	0.0551
RRIRHRPPRLPRPRPRPESCPRP	0.0512
RRIRPRPPRLPRPRPRPHWHPRP	-0.124
RRIRTRPPRLPRPRPRPQDIPRP	-0.0501

[ask] # get_value(readout='shrunken log2 fold change', item= "RRIRERPPRLPRPRPRPSAHPRP" )
[reply] 0.131

[ask] Which shrunken log2 fold change value belongs to "RRIRTRPPRLPRPRPRPPDAPRP" ?
[reply] 0.232

[ask] State the recorded shrunken log2 fold change for this entry: "RRIRWRPPRLPRPRPRPAKWPRP"
[reply] 0.386

[ask] Name the recorded shrunken log2 fold change for "RRIRHRPPRLPRPRPRPRSHPRP" .
[reply] -0.221

[ask] What value of shrunken log2 fold change has been recorded for this entry: "RRIRQRPPRLPRPRPRPPLYPRP"
[reply] 0.233

[ask] Using the record for "RRIRYRPPRLPRPRPRPDPAPRP" , report its shrunken log2 fold change.
[reply] -0.164

[ask] I have this sequence here, "RRIRYRPPRLPRPRPRPRLGPRP" , and I need its recorded shrunken log2 fold change.
[reply] 0.0954

[ask] Given the sequence "RRIRLRPPRLPRPRPRPQCCPRP" , what is its reported shrunken log2 fold change?
[reply] 0.0421

[ask] Entry "RRIRTRPPRLPRPRPRPLFTPRP" has what shrunken log2 fold change?
[reply] -0.352

[ask] shrunken log2 fold change for "RRIRRRPPRLPRPRPRPPKIPRP" ?
[reply] 0.403
